# System: HEK293
# PROTOCOL DETAILS: Cytotoxic Profiling of Annotated Libraries Using Quantitative High-Throughput Screening (AID 1296008); further: on the % scale 0 is the no-effect control and ±100 the full control effect; nearly all actives have a fitted effect of over 60% in size
# SETTINGS: Five cell lines viability, CellTiter-Glo ATP luminescence, 48-72 h; hits give low values
Inconclusive results are not listed.
RECORDED METRIC: max response (%)
Give bare numbers, in %.

Some molecules with recorded max response:
[
  {
    "MOLECULE": "COc1ccc(-n2c(=O)[nH]c3cc(C(=O)NCc4ccc(Cl)cc4)sc3c2=O)nc1OC",
    "max response (%)": 2.86
  },
  {
    "MOLECULE": "CC(=O)O[C@H]1[C@H](O[C@H]2CC[C@]34C[C@]35CC[C@]3(C)[C@@H]([C@@]6(C)CC[C@@H](C(C)(C)O)O6)[C@@H](O)C[C@@]3(C)[C@@H]5C[C@H](O[C@@H]3O[C@H](CO)[C@@H](O)[C@H](O)[C@H]3O)[C@H]4C2(C)C)OC[C@@H](OC(C)=O)[C@@H]1O",
    "max response (%)": -4
  }
]

For every item in the list below, what is its measured max response?
1. CC(C)CC(=O)NCCn1cc(C(=O)O)c(=O)cc1C(O)c1ccccc1 (centres undefined)
2. O=C(/C=C/c1ccc(O)cc1)OC[C@H]1O[C@@H](O/C(=C\c2ccccc2)C(=O)O)[C@H](O)[C@@H](O)[C@@H]1O

[-11.3, -7.06]

* * *

# PROTOCOL DETAILS: P-glycoprotein substrates identified in KB-8-5-11 adenocarcinoma cell line, qHTS therapeutic library screen (AID 1346987); further: nearly all actives have a fitted effect of over 65% in size; on activity change, negative = cytotoxicity: on the % scale 0 is the no-effect control and ±100 the full control effect
# SETTINGS: KB-8-5-11 (P-gp overexpressing) viability, CellTiter-Glo, 72 h; series mostly up to 44.5 µM
# Experimental: The ATP-binding cassette transporters P-glycoprotein (P-gp) is known to limit brain penetration of many chemotherapy drugs. […] All cell lines were plated into 1536-well plates at 500 cells/well in 5 uL media. […] CellTiter-Glo reagent (Promega) was dispensed into the wells, incubated for 5 min and luminescence was read on a ViewLux instrument (Perkin-Elmer). […]
Records with an inconclusive call do not appear. Activity calls are given as the source filed them. Calls follow the shape of the dose curve; as a rule, active = well fitted inhibition curve with a large enough effect; inconclusive = small, poorly fitted or top-dose-only effect; inactive = flat fitted curve, though single readings scatter. *1 amine or outer side, *2 acyl side, *3 side chain or, on linkers, in order; H or OH if unused. Where a SMILES comes first, the peptide text is derived from it. [ ]: non-standard residue; d: D form. The star is where a group is joined. ξ: configuration not given here. X9 = CCC(C)(N*)C(=O)C1CC[C@@H](C(=O)N[C@@H](Cc2ccccc2)C(=O)NCC(=O)O)N1; X8 = O=C([C@@H]1CC(O)CN1[*:1])[*:2]; aIle = CC[C@@H](C)[C@H](N)C(=O)O; Thr(3ξ) = CC(O)[C@H](N)C(=O)O; ξIva = CCC(C)(N)C(=O)O; Aib = CC(C)(N)C(=O)O
RECORDED METRIC: activity change, negative = cytotoxicity

[
  {
    "COMPOUND": "CC[C@@H](C)[C@H](NC(=O)C(C)(C)NC(=O)[C@H](CCC(N)=O)NC(=O)C(C)(CC)NC(=O)[C@H](Cc1c[nH]c2ccccc12)NC(C)=O)C(=O)N[C@H](C(=O)NC(C)(C)C(=O)N[C@@H](CC(C)C)C(=O)NC(C)(C)C(=O)N1CCC[C@H]1C(=O)N[C@@H](CCC(N)=O)C(=O)NC(C)(C)C(=O)N1CC(O)C[C@H]1C(=O)NC(C)(CC)C(=O)C1CC[C@@H](C(=O)N[C@@H](Cc2ccccc2)C(=O)NCC(=O)O)N1)C(C)O (stereo partly drawn) (Ac-W[ξIva]Q[Aib][aIle][Thr(3ξ)][Aib]L[Aib]PQ[Aib][X8]-X9)",
    "RECORDED METRIC": "activity change, negative = cytotoxicity",
    "MEASURED RESULT": "-19% [at 5.11 µM] (inactive)"
  },
  {
    "COMPOUND": "CC1=CC(=O)C2C(C)(C)CCC[C@]2(C)[C@H]1CC[C@H](C)CC(=O)O (stereo partly drawn)",
    "RECORDED METRIC": "activity change, negative = cytotoxicity",
    "MEASURED RESULT": "inactive"
  },
  {
    "COMPOUND": "C[C@@H]1O[C@@H](O[C@H]2[C@@H]3C=CO[C@@H](O[C@@H]4O[C@H](CO)[C@@H](O)[C@H](O)[C@H]4O)[C@@H]3[C@@]3(CO)O[C@@H]23)[C@H](O)[C@H](OC(=O)/C=C/c2ccc(O)c(O)c2)[C@H]1O",
    "RECORDED METRIC": "activity change, negative = cytotoxicity",
    "MEASURED RESULT": "inactive"
  }
]
